Experiment summary: log P by HPLC on reversed-phase columns (C 18), EEC Directive 79/831 Annex V.A8
Type: physicochemical
Condition label: [a] HPLC, acid region pH 2.3, 0.1% aqueous phosphoric acid and acetonitrile
Attribute: log p

Below, each entry is followed by its recorded log p result.
CCN(C)C=Nc1cc(C)c(Oc2nc(Cc3cccc(Br)c3)ns2)cc1C | 2.38^[a]
Cc1cc(Oc2nc(Cc3ccccc3F)ns2)c(C)cc1N=CN1CCCCC1 | 2.27^[a]
CCN(C)C=Nc1cc(C)c(Oc2nc(Cc3ccccc3Cl)ns2)cc1C | 1.97^[a]
Cc1cc(Oc2nc(Cc3cccc(F)c3)ns2)c(C)cc1N=CN1CCCCC1 | 2.25^[a]
CCN(C)C=Nc1cc(C)c(Oc2nc(Cc3ccccc3[N+](=O)[O-])ns2)cc1C | 2.07^[a]
Cc1cc(Oc2nc(Cc3ccc(Oc4ccccc4)cc3)ns2)c(C)cc1N=CN1CCCCC1 | 2.85^[a]
CCN(C)C=Nc1cc(C)c(Oc2nc(Cc3ccc(C#N)cc3)ns2)cc1C | 1.63^[a]
Cc1cc(Oc2nc(Cc3ccccc3[N+](=O)[O-])ns2)c(C)cc1N=CN1CCCCC1 | 2.16^[a]

Would you kindly share the measured log p for CCN(C)C=Nc1cc(C)c(Oc2nc(Cc3ccc4ccccc4c3)ns2)cc1C [Example 112] ?
2.24^[a]

Give the measured log p of CCN(C)C=Nc1cc(C)c(Oc2nc(Cc3c(F)cccc3Cl)ns2)cc1C .
2.33^[a]

State the recorded log p for this entry: CCN(C)C=Nc1cc(C)c(Oc2nc(Cc3ccc(Oc4ccccc4)cc3)ns2)cc1C
2.72^[a]

Find the recorded log p belonging to Cc1cc(Oc2nc(Cc3ccccc3Cl)ns2)c(C)cc1N=CN1CCCCC1 and report it.
2.43^[a]

Entry CCOCC(NC=Nc1cc(C)c(Oc2nc(Cc3ccc(Cl)cc3)ns2)cc1C)C1CC1 (centres unmarked) has what log p?
2.7^[a]

Returns the measured log p for the input compound. Input: CCN(C)C=Nc1cc(Cl)c(Oc2nc(Cc3ccc(SC(F)(F)F)cc3)ns2)cc1C
2.51^[a]
